Biological target: T1, recombinant human ADAMTS5 (R&D Systems cat #2198-AD) (human, UniProt Q9UNA0 262-622, limits assumed)
T1 sequence: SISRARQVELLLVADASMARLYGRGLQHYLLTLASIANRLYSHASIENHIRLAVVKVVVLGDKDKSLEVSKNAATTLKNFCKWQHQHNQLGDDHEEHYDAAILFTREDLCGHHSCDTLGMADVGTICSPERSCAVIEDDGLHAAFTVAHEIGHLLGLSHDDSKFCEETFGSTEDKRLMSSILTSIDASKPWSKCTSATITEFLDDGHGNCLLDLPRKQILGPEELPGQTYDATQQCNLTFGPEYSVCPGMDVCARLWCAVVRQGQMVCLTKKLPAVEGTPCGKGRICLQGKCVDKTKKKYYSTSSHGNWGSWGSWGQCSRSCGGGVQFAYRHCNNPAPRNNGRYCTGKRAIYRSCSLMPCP
Experiment: cell-based or functional assay
experimental_endpoint: AlphaLISA potency IC50, Human (pM)

- binder: "Nanobody 2F03 (VHH, tagged as tested (anti-Flag detection, IMAC); also called 02F03; 2F3) VHH: EVQLVESGGGLVQAGGSLRLSCAASGRTVSSYAMGWFRLAPGKEREFVAGISRSAERTYYVDSLKGRFTISRDSAKNTVYLHMNRLKPEDTAVYYCAADLDPNRIFSREEYAYWGQGTLVTVSS"
  experimental_endpoint: "AlphaLISA potency IC50, Human"
  result_unit: "pM"
  observed_result: 75
- binder: "Nanobody 2A12 (VHH, tagged as tested (anti-Flag detection, IMAC); also called 02A12) VHH: EVQLVESGGGLVQAGGSLRLSCAASGRTFSSYAMGWFRQAPGKERDFVAGISRSAGRTYYVDSVKGRFTISRDSAKNTVYLQMNRLKPEDTAVYYCAADLDPNRIFSRDEAAYWGQGTLVTVSS"
  experimental_endpoint: "AlphaLISA potency IC50, Human"
  result_unit: "pM"
  observed_result: 150
- binder: "Nanobody 9D03 (VHH, tagged as tested (anti-Flag detection, IMAC); also called 09D03; 9D3) VHH: EVQLVESGGGLVQSGGSLRLSCAASGSAVSVNAMAWYRQAPGKQRDFVAGISRSAGRTYYTDSVKDRFTIARDSAKNTVYLQMNRLKPEDTAVYYCAADLDPNRIFSRDEAAYWGQGTLVTVSS"
  experimental_endpoint: "AlphaLISA potency IC50, Human"
  result_unit: "pM"
  observed_result: 110
- binder: "Nanobody 3B02 (VHH, tagged as tested (anti-Flag detection, IMAC); also called 03B02; 3B2) VHH: EVQLVESGGGFVQAGGSLRLSCVASRRTISSGTMGWFRQAPGKEREFVAAIRWSSGMPYYLDSVMDRFTISRDNAKNTVSLQMNSLQPEDTAVYYCAADRSAFRDPSFDVNYEYWGRGTLVTVSS"
  experimental_endpoint: "AlphaLISA potency IC50, Human"
  result_unit: "pM"
  observed_result: 300

Source: patent US20200317802A1
